# key: entry, value: EC50
Molecular target: T1, MHC class I molecule A*0301 (biotin (bound via biotin to streptavidin-coated plates))
T1 construct: also called A3; HLA-A3
Assay: iTopia affinity assay (ED50), peptide titration on plate-bound MHC
Experimental: The 9 mers were tested for Peptide Binding, Off Rate and Affinity using iTopia Epitope Discovery System in accordance with the manufacturer's instructions. Briefly, 96 well microtitre plates coated with MHC molecules representing different MHC alleles are used to identify candidate peptides. […] Determinations are performed in duplicate using an ELISA plate reader and included allele specific positive controls. […]
Please give a number only; it is taken to be in µM.

binder | EC50 (µM)
VVAALLAGR [5T4 9 mer peptide 100 (VVAALLAGR)] | 10
LASNHFLYL [5T4 9 mer peptide 109 (LASNHFLYL)] | 30
NNPWVCDCH [5T4 9 mer peptide 147 (NNPWVCDCH)] | 3

-- ask Give its EC50 value. Item: RLRLARLAL [5T4 9 mer peptide 8 (RLRLARLAL)]
-- reply 0.4

-- ask Give its EC50 value. Item: RLDEVRAGA [5T4 9 mer peptide 65 (RLDEVRAGA)]
-- reply 40

-- ask Give its EC50 value. Item: LTYVSFRNL [5T4 9 mer peptide 125 (LTYVSFRNL)]
-- reply 3
